# protocol_description: Selectivity index, ratio of IC50 for electric eel AChE to IC50 for equine serum BuChE
property: Ratio IC50

## Input In one line, give reported Ratio IC50 of the entry Cc1ccc(S(=O)(=O)N2C(=O)C(c3ccccc3)N(S(=O)(=O)c3ccc(C)cc3)C(=O)C2c2ccccc2)cc1 (stereo not given) .
## Output < 0.4

## Input In one line, give reported Ratio IC50 of the entry Nc1ccc(S(=O)(=O)N2CC(=O)N(S(=O)(=O)c3ccc(N)cc3)CC2=O)cc1 .
## Output < 0.4

## Input In one line, give reported Ratio IC50 of the entry O=C1C(c2ccccc2)N(S(=O)(=O)c2ccc(O)cc2)C(=O)C(c2ccccc2)N1S(=O)(=O)c1ccc(O)cc1 (stereo not given) .
## Output < 0.4

## Input In one line, give reported Ratio IC50 of the entry Cc1cccc(S(=O)(=O)N2C(=O)C(c3ccccc3)N(S(=O)(=O)c3cccc(C)c3)C(=O)C2c2ccccc2)c1 (stereo not given) .
## Output < 0.4

## Input In one line, give reported Ratio IC50 of the entry COc1ccc(S(=O)(=O)N2CC(=O)N(S(=O)(=O)c3ccc(OC)cc3)CC2=O)cc1 .
## Output < 0.5

---

# protocol_description: Antioxidant activity assessed as DPPH radical scavenging activity at 10 uM after 25 mins
# Assay type: functional
Quick list: Activity per entry.
Express the result in % but write the number alone.

Example results:
Cc1cccc(S(=O)(=O)N2C(=O)C(c3ccccc3)N(S(=O)(=O)c3cccc(C)c3)C(=O)C2c2ccccc2)c1 (configuration not stated); 38.6
O=C1C(Cc2ccccc2)N(S(=O)(=O)c2cccc(Br)c2)C(=O)C(Cc2ccccc2)N1S(=O)(=O)c1cccc(Br)c1 (configuration not stated); 46.7
O=C1C(c2ccccc2)N(S(=O)(=O)c2cccc(Br)c2)C(=O)C(c2ccccc2)N1S(=O)(=O)c1cccc(Br)c1 (configuration not stated); 46.2

## Input In one line, give reported Activity of the entry O=C1CN(S(=O)(=O)c2cccc(Cl)c2)C(=O)CN1S(=O)(=O)c1cccc(Cl)c1 .
## Output 35.7

## Input In one line, give reported Activity of the entry O=C1C(Cc2ccccc2)N(S(=O)(=O)c2ccc(Br)cc2)C(=O)C(Cc2ccccc2)N1S(=O)(=O)c1ccc(Br)cc1 (configuration not stated) .
## Output 47.6

## Input In one line, give reported Activity of the entry O=C1C(Cc2ccccc2)N(S(=O)(=O)c2ccc([N+](=O)[O-])cc2)C(=O)C(Cc2ccccc2)N1S(=O)(=O)c1ccc([N+](=O)[O-])cc1 (configuration not stated) .
## Output 42.9

## Input In one line, give reported Activity of the entry O=C1C(c2ccccc2)N(S(=O)(=O)c2ccc(Cl)cc2)C(=O)C(c2ccccc2)N1S(=O)(=O)c1ccc(Cl)cc1 (configuration not stated) .
## Output 52.9
